Target: T1, human IL-36R extracellular domain expressed with a C-terminal myc-myc-hexahistidine tag (hIL-36R-MMH) (human, UniProt Q9HB29 20-337)
T1 construct: also called Human IL-36R-MMH; REGN2105
T1 sequence (Q9HB29 other isoform, or with tags, fused parts or gaps limits assumed): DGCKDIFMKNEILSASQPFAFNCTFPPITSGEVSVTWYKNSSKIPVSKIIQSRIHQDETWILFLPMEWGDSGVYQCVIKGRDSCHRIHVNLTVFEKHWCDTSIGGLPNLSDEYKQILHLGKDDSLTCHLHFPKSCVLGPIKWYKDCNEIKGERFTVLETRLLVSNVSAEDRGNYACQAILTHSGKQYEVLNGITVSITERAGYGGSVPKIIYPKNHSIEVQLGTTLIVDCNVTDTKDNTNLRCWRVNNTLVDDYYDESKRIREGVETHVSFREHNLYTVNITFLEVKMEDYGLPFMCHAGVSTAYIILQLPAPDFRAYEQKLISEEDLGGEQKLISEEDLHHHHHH
Assay: SPR Biacore T200, mAb captured on anti-hFc, 25C, PBS-T pH 7.4 running buffer
MEASURED PARAMETER: koff (s⁻¹)
Numbers only here, please. The scale is s⁻¹.

H4H14709P (antibody, human IgG4 S228P, kappa, V domains shown, Fully human anti-IL-36R antibody) VH: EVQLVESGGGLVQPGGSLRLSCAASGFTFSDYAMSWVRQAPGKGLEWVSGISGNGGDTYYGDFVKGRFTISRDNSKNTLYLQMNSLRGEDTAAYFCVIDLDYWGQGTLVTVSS VL: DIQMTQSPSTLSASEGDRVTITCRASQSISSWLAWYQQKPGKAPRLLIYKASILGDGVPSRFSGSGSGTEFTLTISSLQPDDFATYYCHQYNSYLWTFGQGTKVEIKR | 0.00042

So what's the measured koff for this one? H4H14731P (antibody, human IgG4 S228P, kappa, V domains shown, Fully human anti-IL-36R antibody) VH: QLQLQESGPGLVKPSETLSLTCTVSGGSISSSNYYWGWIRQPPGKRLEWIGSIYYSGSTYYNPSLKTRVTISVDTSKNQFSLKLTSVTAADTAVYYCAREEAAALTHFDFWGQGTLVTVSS VL: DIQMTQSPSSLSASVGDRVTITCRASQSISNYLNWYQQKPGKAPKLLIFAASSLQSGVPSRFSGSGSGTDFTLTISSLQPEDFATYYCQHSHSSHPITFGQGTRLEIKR
0.000553
